Test system: HeLa
Experiment description: Primary qHTS to identify gynecologic anti-cancer compounds using libraries of approved drugs and bioactive compounds (AID 1345084); note: % is set by controls: 0 for no effect and ±100 for the full control effect; nearly all actives have a fitted effect of over 55% in size
Applied conditions: Gynecologic cancer cell panel viability, ATPlite luminescence, 48 h; series mostly up to 57.5 µM
Records with an inconclusive call do not appear. The source made the active and inactive calls. Calls come from the whole dose curve; as a rule, active = well fitted cell-killing curve with a large enough effect; inconclusive = small, poorly fitted or top-dose-only effect, or effect the other way; inactive = flat fitted curve, though single readings scatter. Where a SMILES comes first, the peptide text is derived from it.
Quantity name: activity change, negative = cytotoxicity

{"columns": ["Molecule", "Assayed target", "Measured result"],
 "data": [
  ["CCOC(=O)c1ccc(N(C)c2csc(-c3ccccc3)n2)cc1", "HeLa", "inactive"],
  ["C=C1CCC2C(C)(C(=O)O)CC(O)CC2(C)C1CC/C(C)=C/C(=O)O (configuration not stated)", "HeLa", "inactive"],
  ["C[C@@H]1O[C@@H](O[C@H]2[C@H](OC(=O)C34CCC(C)(C)CC3C3=CCC5C6(C)CC(O)C(O[C@@H]7O[C@H](CO)[C@@H](O)[C@H](O)[C@H]7O)C(C)(C(=O)O)C6CCC5(C)C3(CO)CC4)O[C@H](C)[C@H](O)[C@@H]2O)[C@H](O)[C@H](O)[C@H]1O[C@@H]1OC[C@@H](O)[C@H](O)[C@H]1O (some centres not stated)", "HeLa", "10.9% [at 11.6 µM] (inactive)"],
  ["C[C@]12CCC[C@](C)(C(=O)O)C1CCC13C=C(CO)C(CCC12)C3 (some centres not stated)", "HeLa", "inactive"],
  ["CN1CCC(c2c[nH]c3ccc(NC(=O)c4ccc(F)cc4)cc23)CC1", "HeLa", "inactive"],
  ["c1nc(NC2CCCCCC2)c2cc(CNC[C@H]3CCCO3)sc2n1", "HeLa", "inactive"],
  ["C[C@@H](O)[C@H](N)C(=O)N1CCC[C@H]1C(=O)N1CCC[C@H]1C(=O)N[C@H](C(N)=O)[C@@H](C)O (H-TPPT-NH2)", "HeLa", "8.64% [at 11.6 µM] (inactive)"]
]}

* * *

Experiment description: Primary fluorescence-based thiol-reactive (MSTI) qHTS assay for identification of artifact compounds. (AID 1845221); note: nearly all actives have a fitted effect of over 65% in size
Applied conditions: MSTI thiol-reactivity probe, 1 h; series mostly up to 53.8 µM
Records with an inconclusive call do not appear. Calls of active or inactive are those of the source. The call rests on the fitted dose curve; in most records, active means well fitted inhibition curve with a large enough effect; inconclusive means small, poorly fitted or top-dose-only effect; inactive means no such curve, though single readings can be large or run the other way. Where a SMILES comes first, the peptide text is derived from it. The star is where a group is joined. AFC = O=c1cc(C(F)(F)F)c2ccc(N*)cc2o1
Labels: True for active, False for inactive

{"columns": ["Molecule", "Assigned class"],
 "data": [
  ["C[C@@H]1C[C@H](O)/C=C/[C@H](O)[C@@H](O)CC(=O)O1", "False"],
  ["C[C@]12CCC(=O)C=C1[C@@H](O)C[C@@H]1[C@@H]2[C@@H](O)C[C@@]2(C)[C@H]1CC[C@]2(O)C(=O)CO", "False"],
  ["Cc1ncc([N+](=O)[O-])n1CC(O)CN1CCOCC1 (centres undefined)", "False"],
  ["CCOC(=O)[C@H](CCc1ccccc1)N[C@@H](C)C(=O)N1C2CCCCC2C[C@H]1C(=O)O (some centres undefined)", "False"],
  ["CNc1nc(Nc2cnn([C@H]3CCN(C4COC4)C[C@@H]3F)c2Cl)ncc1C(F)(F)F", "False"],
  ["CC1NC(=O)CNC(=O)C(C(C)C)NC(=O)C2CCCN2C(=O)C(C(C)C)NC(=O)C(Cc2c[nH]c3ccccc23)NC1=O (centres undefined) (cyclo(GAWVPV); configuration not given here)", "False"],
  ["COC1=CC(=O)O[C@@H](/C=C/c2ccccc2)[C@@H]1O", "False"],
  ["CC1CCC2(C(=O)OC3OC(CO)C(O)C(O)C3O)CCC3(C)C(=CCC4C5(C)CC(O)C(O)C(C)(C(=O)O)C5CCC43C)C2C1(C)O (centres undefined)", "False"],
  ["CC(C)=CC/C=C(/C)[C@H]1CC[C@]2(C)[C@@H]1[C@H](O)CC1[C@@]3(C)CC[C@H](O)C(C)(C)[C@@H]3[C@@H](O[C@@H]3O[C@H](CO)[C@@H](O)[C@H](O)[C@H]3O[C@@H]3O[C@@H](C)[C@H](O)[C@@H](O)[C@H]3O)C[C@]12C (some centres undefined)", "False"],
  ["C[C@]12CCC[C@](C)(C(=O)O)C1CCC13C=C(CO)C(CCC12)C3 (some centres undefined)", "False"],
  ["CCN[C@@H]1C[C@H](N)[C@@H](O[C@H]2OC(CN)=CC[C@H]2N)[C@H](O)[C@H]1O[C@H]1OC[C@](C)(O)[C@H](NC)[C@H]1O", "False"],
  ["CCC[C@@H]1C[C@@H](C(=O)N[C@@H]([C@H]2O[C@H](SC)[C@H](O)[C@@H](O)[C@@H]2O)[C@@H](C)O)N(C)C1", "False"],
  ["Cc1cc(C)c(S(=O)(=O)N(Cc2ccc(-c3cccc(S(C)(=O)=O)c3)cc2)Cc2ccc(C(F)(F)F)o2)c(C)c1", "False"],
  ["COC(=O)c1cc(CN2CCN(C(=N)N)CC2)cc(C(=O)N2CCN(C(=O)c3ccc(C(=N)N)cc3)CC2)c1", "False"],
  ["CC(=O)O[C@@]1(C)C[C@@H](O)[C@]2(O)C=CO[C@@H](O[C@@H]3O[C@H](CO)[C@@H](O)[C@H](O)[C@H]3O)[C@@H]21", "False"],
  ["C=C1CCC2C(OC(=O)C2(O)COC(C)=O)C2C(=C)C(O)CC12 (centres undefined)", "True"],
  ["COc1cc(/C=C/C(=O)OC2CC3CCC2(C)C3(C)C)ccc1O (centres undefined)", "False"],
  ["CC(C)c1cc2c(c(O)c1O[C@@H]1O[C@H](CO)[C@@H](O)[C@H](O)[C@H]1O)CC1(O)CCC(O)C(C)(C)C1CC2 (some centres undefined)", "True"],
  ["c1nc(NC2CCCCCC2)c2cc(CNC[C@H]3CCCO3)sc2n1", "False"],
  ["CC(=O)OC[C@@]12[C@H](O)C[C@@H](C)[C@]3(C[C@@H](c4ccoc4)OC3=O)[C@H]1C[C@H](O)C[C@]21CO1", "False"],
  ["CC(=O)N[C@@H](CC(C)C)C(=O)N[C@@H](CCC(=O)O)C(=O)N[C@@H](CCC(=O)O)C(=O)N[C@@H](CC(=O)O)C(=O)Nc1ccc2c(C(F)(F)F)cc(=O)oc2c1 (Ac-LEED-{AFC})", "False"],
  ["C=C1CC[C@@H]2[C@](C)(CC[C@H](O)[C@@]2(C)CCC=C(C)C)[C@@H]1Cc1c[nH]c2ccccc12", "False"],
  ["C=C1CC[C@H]2[C@@](C)(CCC[C@@]2(C)C(=O)O)[C@@H]1CCC(C)CCO (some centres undefined)", "False"],
  ["COC(=O)CC[C@@H](C)[C@H]1CC[C@H]2[C@@H]3CC(=O)[C@H]4C[C@H](OC(C)=O)CC[C@]4(C)[C@H]3CC[C@]12C", "False"],
  ["C[C@H]1C[C@H]2[C@@H]3CCC4=CC(=O)C=C[C@]4(C)[C@@]3(F)[C@@H](O)C[C@]2(C)[C@@]1(O)C(=O)COP(=O)(O)O", "False"],
  ["NS(=O)(=O)OC[C@@H]1C[C@@H](n2ccc3c(N[C@H]4CCc5ccccc54)ncnc32)C[C@@H]1O", "False"],
  ["CC1CCC2(NC1)OC1C(=O)C3C4CCC5CC(O[C@@H]6O[C@H](CO)[C@@H](O)[C@H](O)[C@H]6O[C@@H]6O[C@@H](C)[C@H](O)[C@@H](O)[C@H]6O)CCC5(C)C4CCC3(C)C1C2C (some centres undefined)", "False"],
  ["C=C1C(OC(C)=O)C(=O)C2C(C)(C)C(OC(C)=O)CCC2(C)C1CC(OC(C)=O)/C(C)=C/COC(C)=O (centres undefined)", "False"],
  ["CC1=C2CC3OC3(C)CCC3OC3(C)CC2OC1=O (centres undefined)", "False"]
]}

* * *

Assayed target: Luciferin 4-monooxygenase (Photinus pyralis) (UniProt P08659)
Experiment description: Primary firefly luciferase (FLuc) qHTS assay for identification of artifact compounds. (AID 1845220); note: nearly all actives have a fitted effect of over 60% in size;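 for activity change, negative = inhibition: plate controls were DMSO vehicle for no effect and no enzyme for full effect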
Applied conditions: purified firefly luciferase, luminescence, 5 min; series mostly up to 54.1 µM
The source made the active and inactive calls. Calls come from the whole dose curve; as a rule, active = well fitted inhibition curve with a large enough effect; inconclusive = small, poorly fitted or top-dose-only effect; inactive = flat fitted curve, though single readings scatter.

{"columns": ["Compound", "activity change, negative = inhibition"],
 "data": [
  ["C[C@@H]1CC[C@]2(C(=O)O)CC[C@]3(C)C(=CCC4[C@]5(C)C(CC[C@]43C)C(C)(C)[C@@H](O)[C@H](O)[C@@H]5O)C2[C@]1(C)O (stereo partly drawn)", "inactive"],
  ["CC1(C)CC[C@]2(C(=O)O)CC[C@]3(C)C(=CCC4[C@@]5(C)C[C@H](O)[C@H](O[C@@H]6OC[C@H](O)[C@H](O)[C@H]6O)[C@@](C)(CO)C5CC[C@]43C)[C@@H]2C1 (stereo partly drawn)", "inactive"],
  ["C[C@H]1CN(C[C@H](Cc2ccccc2)C(=O)NCC(=O)O)CC[C@@]1(C)c1cccc(O)c1", "inactive"]
]}
